Observed pIC50, system M. tuberculosis FtsZ (Mycobacterium tuberculosis, UniProt P9WN95).
In textbook form, pIC50 equals minus log to base ten of the concentration in mol/L.

| molecule | pIC50 |
| --- | --- |
| CCOC(=O)Nc1cc2c(c(N)n1)N=C(c1ccccc1)CCN2 [SRI-7614] | 4.22 |

Here's the next entry for you.
Entry CCOC(=O)Nc1cc(NC(C)CCCN(CC)CC)c2nc(-c3ccccc3)c(-c3ccccc3)nc2n1 (centres unmarked) [SRI-3072] : reported pIC50 = ?
4.28

###

# Tested on: M. tuberculosis H37Rv
# assay procedure: MIC99 determination, BACTEC 460 radiometric system
# Assay type: cell-based
# test conditions: Mycobacterium tuberculosis; M. tuberculosis H37Rv, Table 8; read-out: MIC
hey, just use 1 (yes) if measured MIC is less than 6 µg/mL, otherwise 0 (no)

Criterion: MIC strictly below 6 µg/mL. Is it met by CCCCC1=Nc2c(cc(NC(=O)OCC)nc2N)NC1C (centres unmarked) ?
0 (no)

What would you report for `CCOC(=O)Nc1cc2c(c(N)n1)N=C(c1ccc(OCc3ccccc3)cc1)[C@@H](C)N2` ?
0 (no)

Also need `C[C@@H]1Nc2cc(NC(=O)OCc3ccccc3)nc(N)c2N=C1c1ccccc1` , thanks.
0 (no)

What do you have for CCOC(=O)Nc1cc(NC(C)CCCN(CC)CC)c2nc(-c3ccc(Cl)cc3)c(-c3ccc(Cl)cc3)nc2n1 (centres unmarked) ?
1 (yes)

Lookup CCOC(=O)Nc1cc(NC(C)CCCN(CC)CC)c2nc(-c3ccccc3)c(-c3ccccc3)nc2n1.Cl (centres unmarked)
1 (yes)

Consider next the compound CCOC(=O)Nc1cc(NC(C)CCCN(CC)CC)c2ncc(-c3ccc(OC)cc3)nc2n1.Cl (centres unmarked) in the same way.
1 (yes)

And the next one, `CCOC(=O)Nc1cc2c(c(N)n1)N=C(c1ccc3c(c1)OCO3)[C@H](C)N2` ?
0 (no)

Input CCOC(=O)Nc1cc(NC(C)CCCN(CC)CC)c2ncc(-c3ccc(Cl)cc3)nc2n1.Cl (centres unmarked)
1 (yes)

Same again, this time with CCOC(=O)Nc1cc(N)c(N)c(NC(C)C(O)c2ccccc2)n1 (centres unmarked)
0 (no)

Also `CCOC(=O)Nc1cc2[nH]c(-c3ccccc3)nc2c(NC(c2ccccc2)c2ccccc2)n1` , if possible.
0 (no)

Follow-up entry: `CCOC(=O)Nc1cc2[nH]c(-c3ccc4c(c3)OCO4)nc2c(NC(c2ccccc2)c2ccccc2)n1`
1 (yes)

Likewise for `CCOC(=O)Nc1cc2c(c(N)n1)N=C(c1ccccc1)CCN2` ?
0 (no)

Follow-up item: CCOC(=O)Nc1cc2c(c(N)n1)N=C(c1ccccc1)C(c1ccccc1)O2 (centres unmarked)
0 (no)

Input `CCOC(=O)Nc1cc2c(c(N)n1)N=C(c1ccccc1)[C@H](C)O2`
0 (no)

Entry to check: CCOC(=O)Nc1cc2c(c(N)n1)N=C(c1ccc(OC)cc1)C(C)N2 (centres unmarked)
0 (no)

Entry `CCOC(=O)Nc1cc2c(c(N)n1)N=C(CN(C)c1ccccc1)CN2` please
0 (no)

Then this compound: `CCOC(=O)Nc1cc2[nH]c(-c3ccc(OC)cc3)nc2c(NC(c2ccccc2)c2ccccc2)n1`
1 (yes)

Note, next up: CCOC(=O)Nc1cc(NC(C)CCCN(CC)CC)c2ncc(-c3ccc(Cl)c(Cl)c3)nc2n1.Cl.Cl (centres unmarked)
1 (yes)

Can you check CCOC(=O)Nc1cc(NC(C)CCCN(CC)CC)c2nc(-c3ccc(Cl)cc3)cnc2n1.Cl.Cl (centres unmarked) next?
0 (no)

Another compound: `CCOC(=O)Nc1cc2c(c(N)n1)N=C(c1cc(OC)cc(OC)c1)[C@H](C)O2`
0 (no)

Input `CCOC(=O)Nc1cc(NC/C(=N\O)C23CC4CC(CC(C4)C2)C3)c([N+](=O)[O-])c(N)n1`
0 (no)

Likewise for `CC(C)OC(=O)Nc1cc2c(c(N)n1)N=C(c1ccccc1)[C@H](C)N2` ?
0 (no)

What would you report for CCOC(=O)Nc1cc(NC(C)C(O)COc2ccccc2)c(N)c(N)n1 (centres unmarked) ?
0 (no)

What about `CCOC(=O)Nc1cc2nc(-c3ccccc3)c(-c3ccccc3)nc2c(NC(=O)OCC)n1` ?
0 (no)

Now the compound CCOC(=O)Nc1cc(NC(C)CCCN(CC)CC)c2ncc(-c3ccccc3)nc2n1.Cl.Cl (centres unmarked)
0 (no)

# iterate: `CCOC(=O)Nc1cc(NCc2ccc(S(N)(=O)=O)cc2)c2nc(-c3ccccc3)c(-c3ccccc3)nc2n1`
1 (yes)

Next: `CCOC(=O)Nc1cc2c(c(N)n1)N=C(c1ccc(OCc3ccccc3)cc1)[C@H](C)N2`
0 (no)

Can you check `CCOC(=O)Nc1cc2c(c(N)n1)N=C(c1ccccc1)C(C)(C)S2.Cl` next?
0 (no)

Quick one: `CCOC(=O)Nc1cc(Nc2ccc(Cl)cc2)c2nccnc2n1`
0 (no)

###

# Test system: M. tuberculosis H37Rv
# assay procedure: MIC99 determination, BACTEC 460 radiometric system
# Format: cell-based
# test conditions: Mycobacterium tuberculosis, H37RV
quantity name: MIC (µg/mL)
Expressed in µg/mL, but write only the number.

Please review the entries below; each comes with its answer.
| compound | test target | MIC [µg/mL] |
| --- | --- | --- |
| CCOC(=O)Nc1cc(NC(C)CCCN(CC)CC)c2nc(-c3ccc(F)cc3)cnc2n1 (stereo not shown) | M. tuberculosis H37Rv | 12.5 |
| O=C(Nc1cc(Cl)cc(NC(=O)Oc2ccccc2)n1)Oc1ccccc1 | M. tuberculosis H37Rv | 12.5 |

I'd like to know its MIC. The compound in question is CCOC(=O)Nc1cc(NC(C)CCCN(CC)CC)c2ncc(-c3ccc(C(F)(F)F)cc3)nc2n1 (stereo not shown)
6.25
